- System: U-251
- assayMethodText: NCI tumour cell line growth inhibition, 48 h
The source made the active and inactive calls. No stated cut-off is given here; in the data, active = GI50 up to about 1.1 µM and inactive = higher. Square brackets hold non-standard residues; d marks the D form. Peptide text beside a SMILES is read from it. * marks the point of attachment. ξ: configuration not given here. NMeN = CN[C@@H](CC(N)=O)C(=O)O; NMeV = CN[C@H](C(=O)O)C(C)C; ξNMeV = CNC(C(=O)O)C(C)C; Boc = CC(C)(C)OC(=O)*; ξNMeA = CNC(C)C(=O)O
Thanks in advance; please answer with one of these: active, inactive

Short answer needed: outcome of this test for COP(=O)(OC)/C(=C\C1=CN(C(c2ccccc2)(c2ccccc2)c2ccccc2)CN1)NC=O ?
inactive

For CN(C)C(=O)/C=C/c1c[nH]c(=O)[nH]c1=O , what call appears in the results of this test?
inactive

Hi, do you know how CN(C)C(=C1C(Br)=C(Br)C(Br)=C1Br)N(C)C came out in this test?
inactive

Answer briefly: the call reported for C1CCN(C2OC3C(COC3N3CCCCC3)OC2OC2CCO[C@@H]2N2CCCCC2)CC1 (some centres undefined) in this assay.
inactive

Check the results log: what was the call for OC1(c2ccc(Cl)cc2)c2c(ccc3c2OCO3)C2=NCCN21 (centres undefined) ?
inactive

Just curious, what result did CCCCCCCCCCCc1noc2c1C(=O)C(O)CC2 (centres undefined) get here?
inactive

Could you check what this test reported for CCSc1c2cc(OC)ccc2nc2ccc(OC)cc12 ?
inactive

Dear all, I need the recorded test outcome for C=C(CCCCCCCCC)CC(=O)SCCNC(=O)CCNC(=O)C(O)C(C)(C)COP(=O)(O)OP(=O)(O)OCC1OC(n2cnc3c(N)ncnc32)C(O)C1OP(=O)(O)O (centres undefined) , thank you.
inactive

How was CCCCNC(=O)Nc1c(C(N)=O)c2n(c1C(=O)OCC)CCCCC2 classified in this test?
inactive

Given C/C(CC(=O)Nc1ccc(C)c(C)c1)=N\N(c1ccccc1)c1ccccc1 , state the outcome it received in this test.
inactive

// outcome(item) with item = N#Cc1c(N)nc(Sc2ccccc2N)c(C#N)c1-c1ccccc1
inactive

Per the records of this test, what outcome belongs to COC(=O)C(C)N(C)C(=O)[C@H](CC(N)=O)N(C)C(=O)[C@@H]1CCCN1C(=O)[C@H](C(C)C)N(C)C(=O)C(C(C)C)N(C)C(=O)[C@@H](NC(=O)OC(C)(C)C)C(C)C (some centres undefined) (Boc-V[ξNMeV][NMeV]P[NMeN][ξNMeA]-OMe) ?
inactive

Outcome logged for C[N+](C)(C)CC1CCc2ccccc2C1=O (centres undefined) in this assay:
inactive

For Oc1cccc2nc3cc(CN4CCOCC4)c(CN4CCOCC4)cc3nc12 , which call appears in the assay record?
inactive

Test call for this molecule, please: COC(=O)C1=C(c2ccc(OC)c(OC)c2)OC(c2cc(OC)c(OC)c(OC)c2)C1 (centres undefined)
inactive

Which outcome was assigned to COc1cccc(-c2cc(O)c3cccnc3n2)c1 in this test?
active

Recorded call for O=S(=O)(O)c1cc(S(=O)(=O)O)c2c(/N=N/c3ccccc3)c(O)ccc2c1 ?
inactive

Answer briefly: the call reported for CSC(=S)OC1C(CO[Si](C)(C)C(C)(C)C)OC2OC(C)(C)OC21 (centres undefined) in this assay.
inactive

Give the logged outcome of this assay for the following molecule: CC1C=C(OC(=O)c2ccccc2)C(=O)C(n2cc(F)c(=O)n(C(=O)c3ccccc3)c2=O)O1 (centres undefined)
inactive

Hey, what did the test say about Cc1sc2nc(-c3cccc([N+](=O)[O-])c3)c(/C=N/N=C(N)N)n2c1C ?
inactive

// outcome(item) with item = CC(C)CC(C/C=C1/CC(CO)(COC(=O)C(C)(C)C)OC1=O)CC(C)C (centres undefined)
inactive

// return assay outcome for CCCCCCCCCCCCCCCCCCOP(=O)([O-])OC1CC[N+](C)(C)CC1 [PERIFOSINE]
inactive

Record lookup: outcome of this test for CC(C)(C)C1CCC2(CC1)c1[nH]c3ccccc3c1C1(CCC(C(C)(C)C)CC1)c1[nH]c3ccccc3c12 (centres undefined) ?
inactive

Please indicate how the test categorized Fc1c(F)c(F)c2c(c1F)CSc1nc3ccccc3n1-2 .
inactive

Hi, sorry to bother you, what did the test record for Cc1cc(O)c(C(C)C)cc1C(=S)Nc1ccc(Cl)cc1 ?
inactive

Lab log entry: O=c1oc2c/c(=C\c3ccc([N+](=O)[O-])cc3)c(=O)c3cccc1c3-2 — outcome as called in the assay?
inactive

Tell me the assay call for COc1cc2ccc3c4c(OC)cc(OC)c(OC)c4c([O-])[n+](C)c3c2cc1OC please.
inactive

Tell me the recorded outcome of this test for C=CCCCC1CCCNC1=S (centres undefined) .
inactive

Call for entry C=CCNC(=O)NNC(O)(C(=O)OCC)C(F)(F)F (centres undefined) :
inactive

Please state the recorded outcome for this molecule: CO/C=C(/C(=O)OC)c1ccccc1[C@H]1C[C@@H]1c1ccc(OC)cc1
inactive

Please let me know the test result on file for O=C1c2ccccc2C(=O)N1CCn1nc(-c2ccccc2)cc(-c2ccccc2)c1=O .
inactive

What classification did CC(=O)c1ccc2c(c1)c1c(C)c3c[n+](C)ccc3c(C)c1n2C end up with in this test?
active

Just curious, what result did COC(=O)[C@@H](NC1(c2ccccc2)c2ccccc2-c2ccccc21)[C@H](OC(=O)[C@H]1CCCN1S(=O)(=O)c1ccccc1)C(=O)OC get here?
inactive

Just curious, what result did O=C(N/C(=C\c1ccccc1)C1Nc2ccccc2C(=O)O1)c1ccccc1 (centres undefined) get here?
inactive

For this molecule, state the assay outcome: Cc1cc2nc3c(N)nn(CCN(C)C)c3nc2cc1C
inactive

Which outcome did this test record for the molecule CCOC(=O)c1sc2nc(SC)nc3c2c1NC(=O)CN3c1ccc(F)cc1 ?
inactive

Would you mind telling me which call this test gave C=C1[C@@](C)([C@@H]2CCCS2)[C@H]2C(C)=C[C@]1(C)n1c(=O)n(-c3ccccc3)c(=O)n12 ?
inactive

How did this test come out for CC(=O)O[C@H]1[C@@H](N2CCOCC2)C[C@H]2[C@@H]3CC=C4C[C@@H](N5CCCC5)CC[C@]4(C)[C@H]3CC[C@@]21C ?
inactive

Per the assay record, what outcome was assigned to C=CCOC1=C(OC(C)=O)C(C2COC(C)(C)O2)OC1=O (centres undefined) ?
inactive
